Kindly state Percent Effect for each of the entries shown.
ASSAY SYSTEM: AMP-activated protein kinase, AMPK (Homo sapiens) (UniProt P54646+O43741+P54619+Q9UGJ0+Q9Y478+Q13131+Q9UGI9)
PROCEDURE TEXT: AMP-dependent Kinase enzyme assay. An in vitro enzyme assay that detects ADP turnover that is directly proportional to AMPK activity. This uses naive AMPK that is activated during the assay with MK-8722
Type: functional
Set-up: scale not given: direction of the effect not stated beside the values
TEST CONTEXT: 30 µM
The reply should contain only the number, in %.

// recorded Percent Effect for CN(Cc1cn2c(n1)CN(c1ncc(F)cn1)CC2)Cc1ccco1 : -4.28

Quick note, Percent Effect for Cn1cnnc1C1CCN(c2cncc(-n3cccn3)n2)CC1 landed at -2.17

Recorded Percent Effect (molecule COc1ncc(NC(=O)Nc2cc(C)ccc2OC)cn1 ): -6.73

Per the record, COc1ccc(CN(Cc2cccnc2)CC2CCCO2)c(OC)c1 (stereo unspecified) has Percent Effect of 11.4

The reported value for COc1ccc(-c2nc(CN3CCOCS3(=O)=O)c(C)o2)cc1 in terms of Percent Effect is -8.87

Input Cc1cc(C)cc(NS(=O)(=O)c2cc3c(c(C(=O)O)c2)OCCO3)c1 . Output Percent Effect: -7.57

Note to self: Percent Effect recorded for O=C(CCc1nccs1)N1CCN(c2ccccc2F)CC1 was -1.29

// field: Percent Effect; key: CC(=O)N1CC[C@H]2OCC[C@@H](C(=O)N3CCCCO3)[C@@H]2C1 ; value = -3.03

Notebook: CCN1CCN(c2ncc(-c3cc(C)no3)c(-c3ccoc3C)n2)CC1 , Percent Effect read as 5

Percent Effect reading for COc1cc(CN2CC[C@@]3(CCCO3)[C@@H](O)C2)ccc1F : 6.46

// Percent Effect lookup, molecule = CN1CCOC(CNCc2cccc(OCc3ccccn3)c2)C1 (stereo unspecified) , result: -8.27

* * *

ASSAY SYSTEM: Tyrosyl-tRNA synthetase, putative (Trypanosoma cruzi (strain CL Brener))
PROCEDURE TEXT: Trypanosoma cruzi tyrosyl tRNA synthetase (TcYRS) _High Tyrosine SOP; also: in the data most compounds retested in dose-response had high values
Format: functional
Parameters: scale not given: direction of the effect not stated beside the values
TEST CONTEXT: 30 µM
Field: Percent Effect. Provide a value for each of the compounds that follow.
Number in %, nothing else.

Per the reported Tyrosyl-tRNA synthetase, putative (Trypanosoma cruzi (strain CL Brener)) data, CSCC(=O)N1CCCC1c1noc(C2CC2)n1 (stereo unspecified) has Percent Effect of 0.546

# Percent Effect measured on Tyrosyl-tRNA synthetase, putative (Trypanosoma cruzi (strain CL Brener)) for item COCc1ccc(CNC(=O)C2=NN(c3ccccc3)C(=O)CN2)cc1 = 3.23

Log: Tyrosyl-tRNA synthetase, putative (Trypanosoma cruzi (strain CL Brener)), compound Cc1cnn(C2CCCN(C(=O)CCc3nccs3)C2)c1 (stereo unspecified) , Percent Effect = 2.46

O=C1CC(N(C(=O)c2ccc3[nH]c4c(c3c2)CCCC4)C2CC2)C(=O)N1 (stereo unspecified) on Tyrosyl-tRNA synthetase, putative (Trypanosoma cruzi (strain CL Brener)) gives Percent Effect = 7.39

Value sought: Percent Effect, system Tyrosyl-tRNA synthetase, putative (Trypanosoma cruzi (strain CL Brener)), item Cc1cnn(CC2CCCN2C(=O)c2cc3ccccc3[nH]c2=O)c1 (stereo unspecified) . Result: 1.91

Log: Tyrosyl-tRNA synthetase, putative (Trypanosoma cruzi (strain CL Brener)), compound Cc1cnn(Cc2cc(F)ccc2F)c1NC(=O)NC1CC1 , Percent Effect = -16.9
